# protocol_description: Tmax in Sprague-Dawley rat at 3 mg/kg, po
# Type: ADME, organism-based
# test_conditions: in vivo
recorded_endpoint: Tmax (min)
Reply with just the number (in min).

// Cc1ccc(-n2nccn2)c(C(=O)N2CCCO[C@H]2Cn2ccc(-c3ccc(F)cn3)n2)c1 : Tmax value = 20

###

Catalogue of logD values
# protocol_description: Lipophilicity, log D of the compound at pH 7.4 by HPLC analysis
# Format: physicochemical
# test_conditions: buffer
Respond numerically, and do not add a unit to the figure.

// below: answered molecules
structure_as_smiles	logD
Cc1ccc(-n2nccn2)c(C(=O)N2CCCO[C@@H]2Cn2ccc(-c3ccc(F)cn3)n2)c1	2.56
Cc1ccc(-c2ncccn2)c(C(=O)N2CCCO[C@H]2Cn2ccc(-c3ccc(F)cn3)n2)c1	2.36
Cc1ccc(-n2nccn2)c(C(=O)N2CCC[C@@H]2Cn2ccc(-c3ccc(F)cn3)n2)c1	3.06

// Cc1ccc(-n2nccn2)c(C(=O)N2CSC[C@H]2Cn2ccc(-c3ccc(F)cn3)n2)c1 : logD value = 3.08

// Cc1ccc(-n2nccn2)c(C(=O)N2CCC[C@H]2Cn2ccc(-c3ccc(F)cn3)n2)c1 : logD value = 3.08

// CCN(CCn1ccc(-c2ccc(F)cn2)n1)C(=O)c1ccccc1-n1nccn1 : logD value = 2.53

// Cc1ccc(-n2nccn2)c(C(=O)N2CCO[C@H]2Cn2ccc(-c3ccc(F)cn3)n2)c1 : logD value = 2.67

// Cc1ccc(-n2nccn2)c(C(=O)N2CCCO[C@H]2Cc2noc(-c3ccc(F)cn3)n2)c1 : logD value = 2.53

// Cc1ccc(-n2nccn2)c(C(=O)N2COCC[C@H]2Cn2ccc(-c3ccc(F)cn3)n2)c1 : logD value = 2.39

###

# protocol_description: Drug metabolism in dog liver microsomes incubated for 15 mins
# Format: ADME, Canis lupus familiaris, Microsome
# test_conditions: read-out: Drug metabolism
recorded_endpoint: metabolised at 0.25 h (%)
Reply with just the number (in %).

// Cc1ccc(-n2nccn2)c(C(=O)N2CCCO[C@H]2Cn2ccc(-c3ccc(F)cn3)n2)c1 : metabolised at 0.25 h value = 10.5

###

# test_system: P-gp (ABCB1) (Homo sapiens, UniProt P08183)
# Sequence (P08183 whole entry): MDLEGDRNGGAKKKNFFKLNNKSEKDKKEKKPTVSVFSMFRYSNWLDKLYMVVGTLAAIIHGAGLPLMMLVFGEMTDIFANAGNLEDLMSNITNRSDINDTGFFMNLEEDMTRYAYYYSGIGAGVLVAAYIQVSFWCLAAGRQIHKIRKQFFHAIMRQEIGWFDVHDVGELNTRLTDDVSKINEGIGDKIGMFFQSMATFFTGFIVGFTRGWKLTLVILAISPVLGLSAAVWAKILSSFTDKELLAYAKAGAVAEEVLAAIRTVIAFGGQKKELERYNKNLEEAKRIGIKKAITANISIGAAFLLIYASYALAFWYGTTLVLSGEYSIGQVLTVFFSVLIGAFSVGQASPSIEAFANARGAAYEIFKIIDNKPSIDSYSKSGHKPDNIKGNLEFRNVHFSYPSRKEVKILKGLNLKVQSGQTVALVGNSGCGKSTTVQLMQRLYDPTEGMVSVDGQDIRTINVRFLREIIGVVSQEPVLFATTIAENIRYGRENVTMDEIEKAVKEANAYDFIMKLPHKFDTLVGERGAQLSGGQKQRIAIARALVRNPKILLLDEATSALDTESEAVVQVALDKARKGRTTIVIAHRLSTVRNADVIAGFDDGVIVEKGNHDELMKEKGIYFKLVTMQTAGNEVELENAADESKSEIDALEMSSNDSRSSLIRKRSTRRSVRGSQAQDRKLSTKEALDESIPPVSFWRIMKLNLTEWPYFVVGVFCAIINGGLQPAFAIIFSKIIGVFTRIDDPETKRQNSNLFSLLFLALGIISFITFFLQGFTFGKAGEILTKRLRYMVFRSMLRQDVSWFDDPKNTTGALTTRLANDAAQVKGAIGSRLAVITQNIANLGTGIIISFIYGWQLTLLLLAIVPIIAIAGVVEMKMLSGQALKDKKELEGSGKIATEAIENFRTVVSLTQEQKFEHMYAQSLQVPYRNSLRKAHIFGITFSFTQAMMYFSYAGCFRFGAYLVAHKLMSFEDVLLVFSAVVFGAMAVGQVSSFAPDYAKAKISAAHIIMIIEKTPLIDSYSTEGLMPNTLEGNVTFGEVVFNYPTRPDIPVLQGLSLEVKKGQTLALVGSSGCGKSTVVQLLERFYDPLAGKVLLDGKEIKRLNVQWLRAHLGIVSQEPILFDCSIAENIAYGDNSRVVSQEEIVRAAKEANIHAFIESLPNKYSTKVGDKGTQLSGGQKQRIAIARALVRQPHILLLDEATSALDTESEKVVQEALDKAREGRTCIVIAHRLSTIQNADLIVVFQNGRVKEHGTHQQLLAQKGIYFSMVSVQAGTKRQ
# protocol_description: Substrate activity at P-gp (unknown origin) assessed as efflux ratio
# Type: ADME
# test_conditions: not told
Mark fulfilled only for efflux ratio values smaller than 2; exact matches and larger values are not fulfilled.

Previously resolved entries follow.
structure_as_smiles	label_value
Cc1ccc(-n2nccn2)c(C(=O)N2CSC[C@H]2Cn2ccc(-c3ccc(F)cn3)n2)c1	fulfilled
Cc1ccc(-c2ncccn2)c(C(=O)N2CCCO[C@H]2Cn2ccc(-c3ccc(F)cn3)n2)c1	not fulfilled
CCN(CCn1ccc(-c2ccc(F)cn2)n1)C(=O)c1cc(C)ccc1-n1nccn1	fulfilled
Cc1ccc(-n2nccn2)c(C(=O)N2CCCO[C@H]2Cn2ncc(-c3ccc(F)cn3)n2)c1	fulfilled
Cc1ccc(-n2nccn2)c(C(=O)N2CCCO[C@H]2Cn2ccc(-c3ccc(F)cn3)n2)c1	not fulfilled

Next up:
Field: below-cutoff. Rule: recorded efflux ratio strictly less than 2. Subject: O=C(c1cc(F)ccc1-c1ncccn1)N1CCCO[C@H]1Cn1ccc(-c2ccc(F)cn2)n1
not fulfilled

###

Catalogue of half-life values
# protocol_description: Half-life in dog at 0.5 mg/kg, iv
# Assay type: ADME, organism-based, Canis lupus familiaris
# test_conditions: in vivo
A bare number is not enough; add the unit after it.

structure_as_smiles	observed_value
CCN(CCn1ccc(-c2ccc(F)cn2)n1)C(=O)c1ccccc1-n1nccn1	1.07 h

// Cc1ccc(-n2nccn2)c(C(=O)N2CCCO[C@H]2Cn2ccc(-c3ccc(F)cn3)n2)c1 : half-life value = 1.16 h
